The measured values listed here are drawn from ChEMBL document CHEMBL1201862.

- System: INS1
- PROTOCOL SUMMARY: beta cell apoptosis inhibitors, cytokine rescue, dose response, luminescence, retest (AID 449756);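 note: cell death triggered by IL-1 beta plus TNF-alpha plus IFN-gamma mixture; protective hits raise ATP signal compared with cytokine alone wells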
- Format: functional, cell-based
- MEASUREMENT CONTEXT: Rattus norvegicus
Active and inactive are the calls of the source. Cut-off read from the data, not from the text of the source: actives have a measured AC50 and inactives only a lower limit.
QUANTITY: AC50

Known results for compounds:
COMPOUND | OBS VALUE
CCn1/c(=N\C(=O)CCS(=O)(=O)c2ccccc2)sc2cccc(OC)c21 | 5.08 µM (active)
CCCNC(=O)c1c(N)n(-c2cccc(OC)c2)c2nc3ccccc3nc12 | 36.8 µM (active)
Nc1c(Cl)ncnc1N/N=C/c1ccccn1 | 0.521 µM (active)
CCOC(=O)c1cnc(-n2nc(C)cc2C)nc1NC(C)c1ccccc1 (stereo not given) | 4.89 µM (active)

Turning to the following compound.
Specify measured AC50 for CC(C)CN(C(=O)COC(=O)C12CC3CC(CC(Cl)(C3)C1)C2)c1c(N)n(Cc2ccccc2)c(=O)[nH]c1=O .
7.15 µM (active)
